System: A549
ASSAY PROCEDURE: NCI tumour cell line growth inhibition, 48 h
Calls of active or inactive are those of the source. Cut-off read from the data, not from the text of the source: active = GI50 up to about 1.1 µM and inactive = higher.
Respond only with the outcome that fits, drawn from label 1 = active, label 0 = inactive

Example cases with answers are listed next.
>>> df
                                   molecule  target_of_assay  class_name
0         c1ccc2sc(C3(N4CCCC4)CCCCCC3)cc2c1             A549     label 0
1  COc1ccc2c(c1)OCC1Cc3ccccc3OC21 (stereo unspecified)             A549     label 0
2  C/C=C(C)/C=C/CC(C)CCC=C(C)C (stereo unspecified)             A549     label 0
3  Cc1cccc2c(N)c3cccc(C(=O)NCC[N+](C)(C)Cc4sccc4[N+](=O)[O-])c3nc12             A549     label 1

Hey, what did the test say about CC1=CCP(C(F)(F)F)P(C(F)(F)F)C1 (stereo unspecified) ? label 0

Also "Cc1ccccc1/N=N/c1cc(C)c(/N=N/c2c(O)ccc3ccccc23)cc1C" , if possible. label 0

Also C[C@]12CCc3nn(-c4ccccc4)nc3C1CC[C@@H]1C2CC[C@]2(C)C(=O)CCC12 (stereo partly specified) , if possible. label 0

Also "N#CCCN(c1ccc(-c2nnc(NC(=O)CNNC(=O)CC(=O)Nc3ccccc3)s2)cc1)S(=O)(=O)c1ccccc1" , if possible. label 0

Also "COC(=O)CC1(CNC(=O)OCc2ccccc2)OCCO1" , if possible. label 0

Also COc1cc([C@@H]2c3cc4c(cc3[C@@H](OC(=O)c3ccc(N)cc3)C3COC(=O)[C@@H]32)OCO4)cc(OC)c1O (stereo partly specified) , if possible. label 0

###

Test system: T47D
ASSAY PROCEDURE: NCI tumour cell line growth inhibition, 48 h
Activity calls are given as the source filed them. No stated cut-off is given here; in the data, active = GI50 up to about 1.1 µM and inactive = higher.
Respond only with the outcome that fits, drawn from yes (1) = active, no (0) = inactive

Hey, what did the test say about CC(=O)OCC1OC(Sc2nc(-c3ccc(C)cc3)c(C#N)c(=O)n2C2OC(COC(C)=O)C(OC(C)=O)C(OC(C)=O)C2OC(C)=O)C(OC(C)=O)C(OC(C)=O)C1OC(C)=O (stereo not drawn) ? no (0)

Also "Clc1ccc(NCc2nnc(COc3ccc(OCc4nnc(CNc5ccc(Cl)cc5)o4)c(Cl)c3)o2)cc1" , if possible. no (0)

Also "C[C@@H]1O[C@@H](O[C@H]2CC[C@]3(C=O)[C@H]4CC[C@]5(C)[C@@H](c6ccc(=O)oc6)CC[C@]5(O)[C@@H]4CC[C@]3(O)C2)[C@H](O)[C@H](O)[C@H]1O[C@@H]1O[C@H](CO)[C@@H](O)[C@H](O)[C@H]1O" , if possible. yes (1)

Also "Cn1c2ccccc2c2c(-c3ccccc3)cc3c(c21)C(=O)C=CC3=O" , if possible. no (0)

###

Measured GI50, listed per entry.
Tested on: UO-31
ASSAY PROCEDURE: NCI tumour cell line growth inhibition, 48 h
Activity calls are given as the source filed them. Rule as the data show it: active = GI50 up to about 1.1 µM and inactive = higher.

Here are 3 compounds together with their reported answers.
>>> print(df.to_string())
                                   compound       value_reported
0      O=C1CCC(=O)N1n1c(Cc2ccccc2)n[nH]c1=O  > 100 µM (inactive)
1  CCNC12CCC(C1)C(C)(C)C2=O (stereo not given)  > 100 µM (inactive)
2    Oc1ccc2ccccc2c1/C=N/Cc1c(O)ccc2ccccc12   28.7 µM (inactive)

If you can, please state the reported GI50 value of "Cc1c2ccnc(-c3ccccc3)c2cc2c1[nH]c1ccccc12" . 1.33 µM (inactive)

Also CCCCC(C)C1CCC2(C)C=CC(=O)C(C)=C2C1O (stereo not given) , if possible. > 100 µM (inactive)

Also "COc1ccc(/C=C2\C(=O)N(C(=O)Cc3ccccc3)N=C2C)cc1OC" , if possible. > 100 µM (inactive)

Also "CC1(C)CC[C@]2(C)CC=C3[C@]4(C)CC[C@H]5C(C)(C)C(=O)CC[C@]5(C)[C@H]4CC[C@@]3(C)[C@H]2C1" , if possible. > 100 µM (inactive)

Also "COC(=O)c1ccccc1/C=C1\Cc2ccc3c(c2C1=O)CCC3" , if possible. > 100 µM (inactive)

Also "COc1nc2ncc([C@@H](OC(C)=O)[C@@H](COC(C)=O)OC(C)=O)nc2c(=O)[nH]1" , if possible. > 100 µM (inactive)

Also "CN(C)CCCNc1ccc2nnn3c4ccc(O)cc4c(=O)c1c23" , if possible. 2.06 µM (inactive)

Entry source: ChEMBL document CHEMBL1201862
